Reported IC50 values follow for various compounds
# TGT: Alk (Homo sapiens, UniProt Q9UM73)
# Sequence (Q9UM73 1116-1392 limits assumed, species assumed): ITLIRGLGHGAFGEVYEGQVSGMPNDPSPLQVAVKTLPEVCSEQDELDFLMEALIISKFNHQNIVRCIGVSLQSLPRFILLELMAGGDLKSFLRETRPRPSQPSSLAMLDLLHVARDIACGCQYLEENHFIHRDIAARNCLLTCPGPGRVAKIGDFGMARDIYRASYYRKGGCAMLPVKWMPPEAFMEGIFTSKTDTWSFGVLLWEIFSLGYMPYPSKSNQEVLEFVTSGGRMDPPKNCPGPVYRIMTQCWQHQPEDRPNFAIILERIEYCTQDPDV

CN1CCC(N2C(=O)c3cc4nc(-c5c(N[C@H](CO)Cc6c[nH]cn6)cc[nH]c5=O)[nH]c4cc3C2=O)CC1	> 15 µM

Return reported IC50 for target or system Alk (Homo sapiens, UniProt Q9UM73), item Cc1ccc(OC[C@H](O)CNc2ccnc(O)c2-c2nc3cc4c(cc3[nH]2)C(=O)N([C@H]2CCCN(C)C2)C4=O)c(C)c1 .
> 15 µM

Find IC50 for CCN(CC)C(=O)c1ccc(OC[C@H](O)CNc2ccnc(O)c2-c2nc3cc4c(cc3[nH]2)C(=O)N(C2CCN(C)CC2)C4=O)c(OC)c1 on Alk (Homo sapiens, UniProt Q9UM73) and write it down.
> 15 µM

Report its IC50 with Alk (Homo sapiens, UniProt Q9UM73) as the test system: O=C1c2cc3nc(-c4c(NC[C@@H](O)c5cccc(Cl)c5)cc[nH]c4=O)[nH]c3cc2C(=O)N1C(CO)CO
5 to 15 µM

Provide IC50, recorded with Alk (Homo sapiens, UniProt Q9UM73), of CN(C)CCc1ncccc1OC[C@H](O)CNc1ccnc(O)c1-c1nc2cc3c(cc2[nH]1)C(=O)N(C1CCN(C)CC1)C3=O
0.5 to 5 µM

Fill in IC50 for Cc1ncccc1OC[C@H](O)CNc1ccnc(O)c1-c1nc2cc3c(cc2[nH]1)C(=O)N(C1CCN(C)CC1)C3=O tested with Alk (Homo sapiens, UniProt Q9UM73).
5 to 15 µM

Provide IC50, tested on Alk (Homo sapiens, UniProt Q9UM73), for CN1CCN(CCCN2C(=O)c3cc4nc(-c5c(NC[C@@H](O)c6cccc(Cl)c6)cc[nH]c5=O)[nH]c4cc3C2=O)CC1 .
0.5 to 5 µM
